# FACS-Seq fitted mean (log10) per record follows
B1: library; a variant is named by its letters at N, in order (parent)
chain: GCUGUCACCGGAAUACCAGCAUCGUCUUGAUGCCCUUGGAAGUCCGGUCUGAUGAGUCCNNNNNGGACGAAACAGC

Variants of: B1
method notes: FACS-Seq fitted mean relative fluorescence mCherry/BFP without ligand (log10 relative fluorescence); higher = higher reporter protein expression
study conditions: HEK293T, ligand present: no
readout kind: FACS-Seq fitted mean (log10)

variant_identifier=AAUGG measured=0.773
variant_identifier=UCCGG measured=1.14
variant_identifier=UUACC measured=0.865
variant_identifier=CAUAA measured=-0.291
variant_identifier=AGGCA measured=0.779
variant_identifier=CACCA measured=0.729
variant_identifier=UCCCU measured=0.877
variant_identifier=ACGCU measured=0.995
variant_identifier=UUCUU measured=0.641
variant_identifier=AUAAC measured=0.876
variant_identifier=AUGCG measured=0.848
variant_identifier=AGGGU measured=0.635
variant_identifier=UCCGA measured=0.81
variant_identifier=ACGAA measured=0.287
variant_identifier=CGUCC measured=0.784
variant_identifier=AGCCU measured=0.951
variant_identifier=CCGGU measured=0.937
variant_identifier=AAACG measured=0.558
variant_identifier=CCGCA measured=0.678
variant_identifier=ACUCA measured=0.648
variant_identifier=ACCAG measured=0.958
variant_identifier=ACUAA measured=0.266
variant_identifier=AGAUU measured=0.511
variant_identifier=CACCU measured=0.774
variant_identifier=UGGUC measured=0.57
variant_identifier=GCAAC measured=0.716
variant_identifier=CUACA measured=0.702

These measurements were taken from the supplement of paper PMC6757056.
